Source: ChEMBL document CHEMBL1157345

target or test system: Hepatocyte growth factor receptor (Homo sapiens)
Sequence (P08581 whole entry): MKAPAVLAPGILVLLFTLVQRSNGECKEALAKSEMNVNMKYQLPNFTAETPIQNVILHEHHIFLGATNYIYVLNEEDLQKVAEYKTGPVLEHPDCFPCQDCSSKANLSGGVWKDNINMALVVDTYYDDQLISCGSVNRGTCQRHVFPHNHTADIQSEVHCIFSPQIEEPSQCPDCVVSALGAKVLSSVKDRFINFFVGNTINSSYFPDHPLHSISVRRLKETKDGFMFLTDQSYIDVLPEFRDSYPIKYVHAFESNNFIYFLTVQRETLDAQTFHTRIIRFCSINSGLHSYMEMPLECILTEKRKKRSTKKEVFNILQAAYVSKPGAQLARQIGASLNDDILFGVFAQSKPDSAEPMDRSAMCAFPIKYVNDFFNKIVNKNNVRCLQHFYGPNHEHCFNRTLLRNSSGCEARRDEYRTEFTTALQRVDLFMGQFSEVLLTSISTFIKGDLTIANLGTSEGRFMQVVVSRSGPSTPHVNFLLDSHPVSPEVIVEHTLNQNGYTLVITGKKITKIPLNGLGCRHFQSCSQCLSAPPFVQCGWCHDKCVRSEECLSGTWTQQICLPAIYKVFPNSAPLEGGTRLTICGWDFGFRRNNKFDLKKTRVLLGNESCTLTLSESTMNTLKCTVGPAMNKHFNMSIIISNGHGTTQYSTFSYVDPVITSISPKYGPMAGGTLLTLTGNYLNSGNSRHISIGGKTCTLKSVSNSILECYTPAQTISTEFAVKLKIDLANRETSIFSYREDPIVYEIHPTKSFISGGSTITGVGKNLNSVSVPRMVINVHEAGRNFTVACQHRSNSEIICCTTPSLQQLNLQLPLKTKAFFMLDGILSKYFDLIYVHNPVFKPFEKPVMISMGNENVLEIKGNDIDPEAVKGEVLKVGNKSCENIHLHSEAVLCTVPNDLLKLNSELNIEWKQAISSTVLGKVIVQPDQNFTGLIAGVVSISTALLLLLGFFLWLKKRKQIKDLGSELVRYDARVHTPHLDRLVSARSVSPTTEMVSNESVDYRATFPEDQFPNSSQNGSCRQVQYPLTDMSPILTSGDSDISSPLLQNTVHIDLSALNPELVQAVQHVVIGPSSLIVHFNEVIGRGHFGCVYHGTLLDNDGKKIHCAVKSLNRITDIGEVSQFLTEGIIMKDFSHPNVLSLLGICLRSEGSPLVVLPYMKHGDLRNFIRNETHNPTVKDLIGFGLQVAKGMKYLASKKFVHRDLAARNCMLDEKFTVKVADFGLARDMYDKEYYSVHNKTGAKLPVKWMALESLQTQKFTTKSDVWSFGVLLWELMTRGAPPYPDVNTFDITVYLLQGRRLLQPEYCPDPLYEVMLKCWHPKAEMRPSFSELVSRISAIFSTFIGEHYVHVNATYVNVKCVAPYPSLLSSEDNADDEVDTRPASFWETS
pIC50: −log10 of the molar value.

smiles structure: COc1cc2nccc(Oc3ccc4c(NC(=O)c5cccc(C(F)(F)F)c5)nn(C)c4c3)c2cc1OC
target or test system: Hepatocyte growth factor receptor (Homo sapiens)
pIC50: 5.48

----------
# reported half-life; entries follow
assay summary: Half life in Sprague-Dawley rat at 1 mg/kg, iv or 10 mg/kg, po
Assay type: ADME, organism-based
assay context: in vivo
measure name: half-life (h)

smiles structure: COc1cc2nccc(Oc3ccc4c(NC(=O)Nc5ccccc5)nn(C)c4c3)c2cc1OC
readout unit: h
val: 4.3

smiles structure: COc1cc2nccc(Oc3ccc4c(NC(=O)c5ccc(F)c(Cl)c5)nn(C)c4c3)c2cc1OC
readout unit: h
val: 1.5

smiles structure: COc1cc2nccc(Oc3ccc4c(NC(=O)c5cccc(C)c5)nn(C)c4c3)c2cc1OC
readout unit: h
val: 2.7

smiles structure: COc1cc2nccc(Oc3ccc4c(NC(=O)c5cccc(C(F)(F)F)c5)nn(C)c4c3)c2cc1OC
readout unit: h
val: 2.2
